Recorded self-cleavage kobs at 2500 uM GlcN6P values for a group of variants are listed next.
B1: glmS ribozyme (parent)
chain: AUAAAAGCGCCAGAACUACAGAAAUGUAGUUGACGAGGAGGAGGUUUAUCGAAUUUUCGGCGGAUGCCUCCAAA

variants of: B1; experiment: self-cleavage kobs at 2500 uM GlcN6P; higher = faster cleavage; RNA array; conditions: with glucosamine-6-phosphate
This sample holds only a part of the variants without activity.
readout-kind: self-cleavage kobs at 2500 uM GlcN6P (s⁻¹)

| variant-spec | readout-kind | endpoint-unit | bound-operator | reading |
| --- | --- | --- | --- | --- |
| C70U C71A | self-cleavage kobs at 2500 uM GlcN6P | s⁻¹ | = | 0.00018 |
| G38C U56A C67G C68G | self-cleavage kobs at 2500 uM GlcN6P | s⁻¹ | = | 0.000115 |
| G41U U47C G51U | self-cleavage kobs at 2500 uM GlcN6P | s⁻¹ | < | 1e-05 |

These data points were gathered from the supplement of paper PMC7125110.
